test_settings: in chloroform, 273.15 K
readout_label: solubility (mole fraction)

[
  {
    "structure_string": "COc1ccc(C(=O)O)cc1",
    "reported_measurement": 0.00116
  }
]

====

test_settings: in chloroform, 298.15 K

[
  {
    "structure_string": "COc1ccc(C(=O)O)cc1",
    "solubility (mole fraction)": 0.00299
  }
]

====

test_settings: in ethanol, 283.15 K

[
  {
    "structure_string": "COc1ccc(C(=O)O)cc1",
    "solubility (mole fraction)": 0.00757
  }
]

====

test_settings: in acetonitrile, 313.15 K
readout_label: solubility (mole fraction)

[
  {
    "structure_string": "COc1ccc(C(=O)O)cc1",
    "reported_measurement": 0.00492
  }
]
